system_tested: T1, cynomolgus CD38 ECD (cynomolgus, UniProt Q5VAN0 44-301, biotinylated on the AviTag during preparation)
T1 construct: also called Cyno-CD38; Avi-Cyno CD38 ECD
assay_details: ELISA: plate coated with 1 ug/ml recombinant cynomolgus CD38 ECD, serially diluted antibody, OD450
metric_name: EC50 (read off the curve)

binder	measurement
17F7 (antibody, human IgG1, kappa, V domains shown, Rabbit-human chimeric anti-CD38: rabbit VH and VL on human IgG1 and kappa constant regions) VH: QSVEESGGRLVTPGTPLTLTCTASGFSLSSYYMSWVRQAPGKGLEWIGFISKTAITYYASWARGRFTISKTSTAVDLKITSPTTEDTATYFCARVDAYSAGDLWGPGTLVTVSS VL: AQVLTQTPSSVSAAVGGTVTINCQASQSVYSDNRLSWFQQKSGQPPKLLIYSTSSLASGVPSRFSGSGSGTQFTLTISGVQSDDAASYYCQGEFICTSADCFVFGGGTEVVVKR	~0.06 nM
22H6 (antibody, human IgG1, kappa, V domains shown, Rabbit-human chimeric anti-CD38: rabbit VH and VL on human IgG1 and kappa constant regions) VH: QSVEESGGRLVTPGTPLTLTCTVSGFSLSNNAISWVRQAPGKGLQWIGSIYGSGNTYYATWAKGRFTVSKTSTTVDLKINSPTTEDTATYFCAREGAGSSWGFNLWGPGTLVTVSS VL: AQVLTQTASSVSAAVGGTVTISCQSSESVYKNNYLSWYQQKPGQPLKCLIYSASTLASGVPSRFKGSGSGTQFTLTISDLESDDAATYYCAGGYSGNINGFGGGTEVVVKR	~0.06 nM
26D4 (antibody, human IgG1, kappa, V domains shown, Rabbit-human chimeric anti-CD38: rabbit VH and VL on human IgG1 and kappa constant regions) VH: QEQLEESGGDLVKPEGSLTLTCTASGFSFSNDAICWVRQAPGKGLEWIACIYAGSGNTYYASWAKGRFSISKTSSTTVTLQMTSLTVADTATYFCASADTIDYFNLWGPGTLVTVSS VL: AQVLTQTPSPVSAAVGGTVTINCQASQSVYNNNYLAWYQQKPGQPPKLLIYRASNLASGVPSRFSASGSGTQFTLTISEVQSDDAATYYCQAYYRDPTTAFGGGTEVVVKR	~0.06 nM
